- TARGET_DESC: Protein cereblon/Cyclin-dependent kinase 9 (Homo sapiens, UniProt P50750+Q96SW2)
- Sequence (P50750 whole entry, looked up): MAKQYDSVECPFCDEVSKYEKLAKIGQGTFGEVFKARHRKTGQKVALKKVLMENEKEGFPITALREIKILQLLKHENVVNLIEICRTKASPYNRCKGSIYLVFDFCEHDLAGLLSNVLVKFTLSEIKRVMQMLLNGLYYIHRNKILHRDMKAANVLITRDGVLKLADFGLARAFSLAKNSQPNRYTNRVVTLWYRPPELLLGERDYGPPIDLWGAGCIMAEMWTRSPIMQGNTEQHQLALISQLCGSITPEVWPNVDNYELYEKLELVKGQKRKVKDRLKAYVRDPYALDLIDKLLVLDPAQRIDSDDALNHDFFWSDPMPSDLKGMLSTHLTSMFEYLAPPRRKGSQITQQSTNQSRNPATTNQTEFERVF
- Sequence (Q96SW2 whole entry, looked up): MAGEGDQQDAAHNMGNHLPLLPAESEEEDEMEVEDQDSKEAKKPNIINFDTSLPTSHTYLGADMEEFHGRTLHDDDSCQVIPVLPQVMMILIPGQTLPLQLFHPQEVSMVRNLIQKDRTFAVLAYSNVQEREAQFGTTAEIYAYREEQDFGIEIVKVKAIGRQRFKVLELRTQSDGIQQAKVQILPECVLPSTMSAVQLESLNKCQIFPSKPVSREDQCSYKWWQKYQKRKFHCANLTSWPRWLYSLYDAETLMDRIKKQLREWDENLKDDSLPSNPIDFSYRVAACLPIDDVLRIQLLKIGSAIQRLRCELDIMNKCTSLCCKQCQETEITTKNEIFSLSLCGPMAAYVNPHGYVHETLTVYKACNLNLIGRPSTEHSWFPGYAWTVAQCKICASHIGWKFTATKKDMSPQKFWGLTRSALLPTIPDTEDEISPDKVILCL
- ASSAY_EXPLANATION: Protac activity at CRBN/CDK9 in human MV4-11 cells assessed as CDK9 degradation rate at 500 nM incubated for 6 hrs by Western blot assay relative to control
- Assay type: cell-based

| MOLECULE | Activity (%) |
| --- | --- |
| COc1cc(F)ccc1-c1ncnc(Nc2cccc(CS(C)(=O)=NC(=O)CCCCCC(=O)NCCCCCNc3cccc4c3C(=O)N(C3CCC(=O)NC3=O)C4=O)c2)n1 (configuration not stated) | 95 |
| COc1cc(F)ccc1-c1ncnc(Nc2cccc(CS(C)(=O)=NC(=O)COCCOCCOCC(=O)NCCCCCNc3cccc4c3C(=O)N(C3CCC(=O)NC3=O)C4=O)c2)n1 (configuration not stated) | 100 |
| COc1cc(N2CCN(CCCCCCCC(=O)NCCNc3cccc4c3C(=O)N(C3CCC(=O)NC3=O)C4=O)CC2)ccc1-c1ncnc(Nc2cccc(CS(C)(=N)=O)c2)n1 (configuration not stated) | 33 |
| COc1cc(F)ccc1-c1ncnc(Nc2cccc(CS(C)(=O)=NC(=O)CCCCCCCC(=O)NCCNc3cccc4c3C(=O)N(C3CCC(=O)NC3=O)C4=O)c2)n1 (configuration not stated) | 100 |
| COc1cc(F)ccc1-c1ncnc(Nc2cccc(CS(C)(=O)=NC(=O)CCCCCC(=O)NCCNc3cccc4c3C(=O)N(C3CCC(=O)NC3=O)C4=O)c2)n1 (configuration not stated) | 88.8 |
| COc1cc(N2CCN(CCCCCCC(=O)NCCNc3cccc4c3C(=O)N(C3CCC(=O)NC3=O)C4=O)CC2)ccc1-c1ncnc(Nc2cccc(CS(C)(=N)=O)c2)n1 (configuration not stated) | 52 |
| COc1cc(F)ccc1-c1ncnc(Nc2cccc(CS(C)(=O)=NC(=O)CCc3cn(CCCCCC(=O)NCCNc4cccc5c4C(=O)N(C4CCC(=O)NC4=O)C5=O)nn3)c2)n1 (configuration not stated) | 88.8 |
| COc1cc(F)ccc1-c1ncnc(Nc2cccc(CS(C)(=O)=NC(=O)CCCCCCCCCC(=O)NCCNc3cccc4c3C(=O)N(C3CCC(=O)NC3=O)C4=O)c2)n1 (configuration not stated) | 100 |
| COc1cc(F)ccc1-c1ncnc(Nc2cccc(CS(C)(=O)=NC(=O)CCC(=O)CCC(=O)NCCNc3cccc4c3C(=O)N(C3CCC(=O)NC3=O)C4=O)c2)n1 (configuration not stated) | 98 |
| COc1cc(N2CCN(CCCCCCCCCC(=O)NCCNc3cccc4c3C(=O)N(C3CCC(=O)NC3=O)C4=O)CC2)ccc1-c1ncnc(Nc2cccc(CS(C)(=N)=O)c2)n1 (configuration not stated) | 44 |
| COc1cc(F)ccc1-c1ncnc(Nc2cccc(CS(C)(=O)=NC(=O)CCC(=O)CCC(=O)NCCCCCNc3cccc4c3C(=O)N(C3CCC(=O)NC3=O)C4=O)c2)n1 (configuration not stated) | 67 |
| COc1cc(F)ccc1-c1ncnc(Nc2cccc(C[S@](C)(=N)=O)c2)n1 | 0 |

----------
# Activity per entry
- TARGET_DESC: Protein cereblon/Cyclin-dependent kinase 9 (Homo sapiens, UniProt P50750+Q96SW2)
- ASSAY_EXPLANATION: Protac activity at CRBN/CDK9 in human MOLM-13 cells assessed as CDK9 degradation rate at 500 nM incubated for 6 hrs by Western blot assay relative to control
- Assay type: cell-based

| COMPOUND | TARGET_DESC | QUANTITY_UNIT | Activity |
| --- | --- | --- | --- |
| COc1cc(F)ccc1-c1ncnc(Nc2cccc(CS(C)(=O)=NC(=O)CCC(=O)CCC(=O)NCCNc3cccc4c3C(=O)N(C3CCC(=O)NC3=O)C4=O)c2)n1 (stereo not given) | Protein cereblon/Cyclin-dependent kinase 9 (Homo sapiens, UniProt P50750+Q96SW2) | % | 98 |
| COc1cc(N2CCN(CCCCCCC(=O)NCCNc3cccc4c3C(=O)N(C3CCC(=O)NC3=O)C4=O)CC2)ccc1-c1ncnc(Nc2cccc(CS(C)(=N)=O)c2)n1 (stereo not given) | Protein cereblon/Cyclin-dependent kinase 9 (Homo sapiens, UniProt P50750+Q96SW2) | % | 7 |
| COc1cc(N2CCN(CCCCCCCCCC(=O)NCCNc3cccc4c3C(=O)N(C3CCC(=O)NC3=O)C4=O)CC2)ccc1-c1ncnc(Nc2cccc(CS(C)(=N)=O)c2)n1 (stereo not given) | Protein cereblon/Cyclin-dependent kinase 9 (Homo sapiens, UniProt P50750+Q96SW2) | % | 49 |
| COc1cc(F)ccc1-c1ncnc(Nc2cccc(CS(C)(=O)=NC(=O)COCCOCCOCC(=O)NCCNc3cccc4c3C(=O)N(C3CCC(=O)NC3=O)C4=O)c2)n1 (stereo not given) | Protein cereblon/Cyclin-dependent kinase 9 (Homo sapiens, UniProt P50750+Q96SW2) | % | 0 |
| COc1cc(F)ccc1-c1ncnc(Nc2cccc(CS(C)(=O)=NC(=O)CCC(=O)CCC(=O)NCCCCCNc3cccc4c3C(=O)N(C3CCC(=O)NC3=O)C4=O)c2)n1 (stereo not given) | Protein cereblon/Cyclin-dependent kinase 9 (Homo sapiens, UniProt P50750+Q96SW2) | % | 45 |
| COc1cc(F)ccc1-c1ncnc(Nc2cccc(CS(C)(=O)=NC(=O)CCCCCCCC(=O)NCCNc3cccc4c3C(=O)N(C3CCC(=O)NC3=O)C4=O)c2)n1 (stereo not given) | Protein cereblon/Cyclin-dependent kinase 9 (Homo sapiens, UniProt P50750+Q96SW2) | % | 100 |
| COc1cc(F)ccc1-c1ncnc(Nc2cccc(CS(C)(=O)=NC(=O)CCc3cn(CCCCCCCC(=O)NCCNc4cccc5c4C(=O)N(C4CCC(=O)NC4=O)C5=O)nn3)c2)n1 (stereo not given) | Protein cereblon/Cyclin-dependent kinase 9 (Homo sapiens, UniProt P50750+Q96SW2) | % | 100 |
| COc1cc(F)ccc1-c1ncnc(Nc2cccc(C[S@](C)(=N)=O)c2)n1 | Protein cereblon/Cyclin-dependent kinase 9 (Homo sapiens, UniProt P50750+Q96SW2) | % | 0 |
| COc1cc(F)ccc1-c1ncnc(Nc2cccc(CS(C)(=O)=NC(=O)CCCCCC(=O)NCCCCCNc3cccc4c3C(=O)N(C3CCC(=O)NC3=O)C4=O)c2)n1 (stereo not given) | Protein cereblon/Cyclin-dependent kinase 9 (Homo sapiens, UniProt P50750+Q96SW2) | % | 65 |
| COc1cc(N2CCN(CCCCCCCC(=O)NCCNc3cccc4c3C(=O)N(C3CCC(=O)NC3=O)C4=O)CC2)ccc1-c1ncnc(Nc2cccc(CS(C)(=N)=O)c2)n1 (stereo not given) | Protein cereblon/Cyclin-dependent kinase 9 (Homo sapiens, UniProt P50750+Q96SW2) | % | 23 |

----------
# pIC50 per entry
- Tested on: A549
- ASSAY_EXPLANATION: Antiproliferative activity against human A549 cells incubated for 72 hrs by MTT assay
- Type: functional, cell-based
- COND: A549, 72 h
pIC50: −log10 of the molar value.

| COMPOUND | TARGET_DESC | RELATIONAL_OPERATOR | pIC50 |
| --- | --- | --- | --- |
| COc1cc(F)ccc1-c1ncnc(Nc2cccc(CS(C)(=O)=NC(=O)CCCCCC(=O)NCCCCCNc3cccc4c3C(=O)N(C3CCC(=O)NC3=O)C4=O)c2)n1 (centres undefined) | A549 | = | 4.93 |
| COc1cc(F)ccc1-c1ncnc(Nc2cccc(CS(C)(=O)=NC(=O)CCCCCC(=O)NCCNc3cccc4c3C(=O)N(C3CCC(=O)NC3=O)C4=O)c2)n1 (centres undefined) | A549 | = | 5.84 |
| COc1cc(F)ccc1-c1ncnc(Nc2cccc(CS(C)(=O)=NC(=O)CCCC(=O)NCCNc3cccc4c3C(=O)N(C3CCC(=O)NC3=O)C4=O)c2)n1 (centres undefined) | A549 | = | 4.45 |
| COc1cc(N2CCN(CCCCCC(=O)NCCNc3cccc4c3C(=O)N(C3CCC(=O)NC3=O)C4=O)CC2)ccc1-c1ncnc(Nc2cccc(CS(C)(=N)=O)c2)n1 (centres undefined) | A549 | < | 4.30 |

----------
# pIC50 per entry
- TARGET_DESC: CDK9/cyclin T1 (Homo sapiens)
- Sequence (O60563 whole entry): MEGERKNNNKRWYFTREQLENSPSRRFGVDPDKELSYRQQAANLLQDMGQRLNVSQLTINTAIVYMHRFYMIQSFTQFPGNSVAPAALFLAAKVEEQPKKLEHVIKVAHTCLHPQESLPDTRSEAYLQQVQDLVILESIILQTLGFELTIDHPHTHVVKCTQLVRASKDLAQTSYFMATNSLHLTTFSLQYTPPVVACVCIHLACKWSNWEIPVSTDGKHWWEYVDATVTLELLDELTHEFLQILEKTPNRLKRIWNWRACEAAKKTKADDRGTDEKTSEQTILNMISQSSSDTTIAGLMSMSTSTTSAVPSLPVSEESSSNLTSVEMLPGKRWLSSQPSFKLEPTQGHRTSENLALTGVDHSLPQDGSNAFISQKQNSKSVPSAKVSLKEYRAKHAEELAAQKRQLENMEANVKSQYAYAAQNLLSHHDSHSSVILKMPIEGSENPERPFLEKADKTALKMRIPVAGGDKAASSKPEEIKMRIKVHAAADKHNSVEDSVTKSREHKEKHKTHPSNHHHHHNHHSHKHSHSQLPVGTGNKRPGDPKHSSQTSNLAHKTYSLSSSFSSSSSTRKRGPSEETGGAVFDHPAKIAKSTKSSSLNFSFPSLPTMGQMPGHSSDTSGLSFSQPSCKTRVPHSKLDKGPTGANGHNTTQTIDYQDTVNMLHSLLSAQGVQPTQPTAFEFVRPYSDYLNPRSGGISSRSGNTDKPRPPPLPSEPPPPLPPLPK
- Sequence (P50750 whole entry): as the sequence (P50750 whole entry, looked up) above
- ASSAY_EXPLANATION: Inhibition of CDK9/cyclin T (unknown origin) using YSPTSPSYSPTSPSYSPTSPKKK or histone H1 as substrate incubated for 2 hrs in presence of [gamma-33P]ATP by radioactive filter binding assay
pIC50: −log10 of the molar value.

| COMPOUND | pIC50 |
| --- | --- |
| COc1cc(F)ccc1-c1ncnc(Nc2cccc(CS(C)(=O)=NC(=O)CCc3cn(CCCCCC(=O)NCCNc4cccc5c4C(=O)N(C4CCC(=O)NC4=O)C5=O)nn3)c2)n1 (stereo not given) | 7.94 |
| COc1cc(F)ccc1-c1ncnc(Nc2cccc(CS(C)(=O)=NC(=O)CCC(=O)CCC(=O)NCCCCCNc3cccc4c3C(=O)N(C3CCC(=O)NC3=O)C4=O)c2)n1 (stereo not given) | 7.07 |
| COc1cc(F)ccc1-c1ncnc(Nc2cccc(CS(C)(=O)=NC(=O)CCc3cn(CCCCCCCC(=O)NCCNc4cccc5c4C(=O)N(C4CCC(=O)NC4=O)C5=O)nn3)c2)n1 (stereo not given) | 8.03 |
| COc1cc(F)ccc1-c1ncnc(Nc2cccc(CS(C)(=O)=NC(=O)CCC(=O)CCC(=O)NCCNc3cccc4c3C(=O)N(C3CCC(=O)NC3=O)C4=O)c2)n1 (stereo not given) | 7.99 |
| COc1cc(F)ccc1-c1ncnc(Nc2cccc(CS(C)(=O)=NC(=O)COCCOCCOCC(=O)NCCNc3cccc4c3C(=O)N(C3CCC(=O)NC3=O)C4=O)c2)n1 (stereo not given) | 7.83 |
| COc1cc(F)ccc1-c1ncnc(Nc2cccc(CS(C)(=O)=NC(=O)CCCC(=O)NCCNc3cccc4c3C(=O)N(C3CCC(=O)NC3=O)C4=O)c2)n1 (stereo not given) | 7.89 |
| COc1cc(N2CCN(CCCCCCCCCC(=O)NCCNc3cccc4c3C(=O)N(C3CCC(=O)NC3=O)C4=O)CC2)ccc1-c1ncnc(Nc2cccc(CS(C)(=N)=O)c2)n1 (stereo not given) | 5.20 |
| COc1cc(F)ccc1-c1ncnc(Nc2cccc(CS(C)(=O)=NC(=O)CCCCCCCCCC(=O)NCCNc3cccc4c3C(=O)N(C3CCC(=O)NC3=O)C4=O)c2)n1 (stereo not given) | 7.97 |
| COc1cc(N2CCN(CCCCCC(=O)NCCNc3cccc4c3C(=O)N(C3CCC(=O)NC3=O)C4=O)CC2)ccc1-c1ncnc(Nc2cccc(CS(C)(=N)=O)c2)n1 (stereo not given) | 5.09 |
| COc1cc(F)ccc1-c1ncnc(Nc2cccc(CS(C)(=O)=NC(=O)COCCOCCOCC(=O)NCCCCCNc3cccc4c3C(=O)N(C3CCC(=O)NC3=O)C4=O)c2)n1 (stereo not given) | 8.03 |
| COc1cc(F)ccc1-c1ncnc(Nc2cccc(CS(C)(=O)=NC(=O)CCCCCC(=O)NCCCCCNc3cccc4c3C(=O)N(C3CCC(=O)NC3=O)C4=O)c2)n1 (stereo not given) | 7.86 |
| COc1cc(F)ccc1-c1ncnc(Nc2cccc(CS(C)(=O)=NC(=O)CCCCCC(=O)NCCNc3cccc4c3C(=O)N(C3CCC(=O)NC3=O)C4=O)c2)n1 (stereo not given) | 7.84 |
| COc1cc(F)ccc1-c1ncnc(Nc2cccc(CS(C)(=O)=NC(=O)CCCCCCCC(=O)NCCNc3cccc4c3C(=O)N(C3CCC(=O)NC3=O)C4=O)c2)n1 (stereo not given) | 8.06 |
| COc1cc(N2CCN(CCCCCCCC(=O)NCCNc3cccc4c3C(=O)N(C3CCC(=O)NC3=O)C4=O)CC2)ccc1-c1ncnc(Nc2cccc(CS(C)(=N)=O)c2)n1 (stereo not given) | 5.16 |
| COc1cc(N2CCN(CCCCCCC(=O)NCCNc3cccc4c3C(=O)N(C3CCC(=O)NC3=O)C4=O)CC2)ccc1-c1ncnc(Nc2cccc(CS(C)(=N)=O)c2)n1 (stereo not given) | 5.18 |
